Target: human GLP-1 receptor (human, UniProt P43220 24-463)
Test: cell-based or functional assay
Numbered stars: 1 amine (or outer) side, 2 acyl side, 3 side chain; on linkers, the order of the positions; unused ones are H or OH. Square brackets hold non-standard residues; d marks the D form. Side chains are listed from the residue outwards. Ends that are not written are not given here. * marks the point of attachment. C20 diacid = O=C(O)CCCCCCCCCCCCCCCCCCC(=O)*; γGlu = O=C(O)[C@H](CCC(=O)[*:2])N[*:1]; Desaminohistidyl = O=C(CCc1c[nH]cn1)*; αMeF = C[C@](N)(Cc1ccccc1)C(=O)O; αMeK = C[C@](N)(CCCCN)C(=O)O; Dab = NCC[C@H](N)C(=O)O; AEEA = NCCOCCOCC(=O)O; Aib = CC(C)(N)C(=O)O
MEASUREMENT NAME: hGLP1R cAMP Rel EC50 (nM)
Give just the numeric value; nM need not be written.

What does the record list as hGLP1R cAMP Rel EC50 for [Desaminohistidyl][Aib]EGTFTSDYSILLDKK([AEEA-AEEA-γGlu-C20 diacid])AQ[Aib]AFIEYLIEGGPSSGAPPPS-NH2 [Example 106] ?
0.0413

Follow-up item: H[Aib]EGTFTSDYSI[αMeF]LDKK([Dab-AEEA-Dab-AEEA-C20 diacid])AQ[αMeK]AFIQYLLA[Aib]GPSSGAPPPS-NH2 [Example 19]
0.104

# iterate: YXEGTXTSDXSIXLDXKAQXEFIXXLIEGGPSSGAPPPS (Aib2; αMeF(2F)6; 4Pal10; αMeL13; Orn16; K17((2-[2-(2-Amino-ethoxy)-ethoxy]-acetyl)2-(γ-Glu)-CO-(CH2)16-CO2H); Aib20; D-Glu24; αMeY25; C-terminal NH2) [Example 4]
0.0297

Can you check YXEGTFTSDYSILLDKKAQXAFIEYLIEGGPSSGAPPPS (Aib2; K17((2-[2-(2-Amino-ethoxy)-ethoxy]-acetyl)-AOC-(γ-Glu)-CO-(CH2)18-CO2H); Aib20; C-terminal NH2) [Example 108] next?
0.294

Try this binder too: YXEGTFTSDYSIXLDKKAQXAXIEYLIEGGPSSGAPPPS (not fully specified; Aib2; αMeF13 as printed (likely αMeL13); K17((2-[2-(2-Amino-ethoxy)-ethoxy]-acetyl)2-(γ-Glu)-CO-(CH2)18-CO2H); Aib20; αMeF22; C-terminal NH2) [Example 74]
0.467

Try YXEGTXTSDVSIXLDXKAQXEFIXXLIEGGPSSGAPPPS (Aib2; αMeF(2F)6; αMeL13; Orn16; K17((2-[2-(2-Amino-ethoxy)-ethoxy]-acetyl)2-(γ-Glu)-CO-(CH2)16-CO2H); Aib20; D-Glu24; αMeY25; C-terminal NH2) [Example 5] next.
0.0164

Y[Aib]EGTFTSDYSILLDKIAQKEFIQYLLE[Aib]GPSSGAPPPS-NH2 (not fully specified (residue 20)) [Example 14] , same question.
1.87

Proceed to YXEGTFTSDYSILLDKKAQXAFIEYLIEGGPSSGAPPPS (Aib2; K17((2-[2-(2-Amino-ethoxy)-ethoxy]-acetyl)2-(ϵK)-CO-(CH2)18-CO2H); Aib20; C-terminal NH2) [Example 113]
0.233

Another: XAEGTFTSDYSILLDKKAQXAFIEYLIEGGPSSGAPPPS (N-terminal Ac; D-Tyr1; K17((2-[2-(2-Amino-ethoxy)-ethoxy]-acetyl)2-(γ-Glu)-CO-(CH2)18-CO2H); Aib20; C-terminal NH2) [Example 79]
2.02

Subsequent entry: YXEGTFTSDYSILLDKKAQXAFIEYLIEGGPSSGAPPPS (Aib2; K17((2-[2-(2-Amino-ethoxy)-ethoxy]-acetyl)2-(γ-Glu)-CO-(CH2)18-CO2H); Aib20; C-terminal NH2) [Example 8]
0.148
